Recorded values, source patent US11872270B2.

# study-system: HLA-A*03:01 (Homo sapiens)
# test-protocol: MHC binding assay (UV-ligand exchange, β2m ELISA)
# setup-conditions: binding to HLA-A*03:01, UV-ligand exchange, β2m ELISA
endpoint-label: Peptide exchange (MHC class I binding score, peptide exchange yield)

Below: 5 substances and their reported Peptide exchange (MHC class I binding score, peptide exchange yield).
42 (RVCMTVDSLVNK; listed as Homo sapiens) [compound 42]
++++ (>75% = ++++)
105 (QVLDLQSVK; listed as Homo sapiens) [compound 105]
++ (>20% = ++)
223 (GISNPITTSK; listed as Homo sapiens) [compound 223]
++++ (>75% = ++++)
141 (RLRDYISSLK; listed as Homo sapiens) [compound 141]
++++ (>75% = ++++)
83 (KLADSVMAGK; listed as Homo sapiens) [compound 83]
++++ (>75% = ++++)

Your task in this section: give Peptide exchange (MHC class I binding score, peptide exchange yield) for each listed record.
1. 12 (KVLTRNIEY; listed as Homo sapiens) [compound 12]
2. 17 (GGLSSQGVYY; listed as Homo sapiens) [compound 17]
3. 56 (TTYYPSPLNK; listed as Homo sapiens) [compound 56]
4. 222 (RSNPYFQNK; listed as Homo sapiens) [compound 222]
5. 75 (IIFVPEMNK; listed as Homo sapiens) [compound 75]
6. 103 (SIYKKAVYR; listed as Homo sapiens) [compound 103]
7. 102 (RLLQHTPSAR; listed as Homo sapiens) [compound 102]

// result
1. +++ (>50 = +++)
2. ++ (>20% = ++)
3. +++ (>50 = +++)
4. ++++ (>75% = ++++)
5. ++++ (>75% = ++++)
6. ++++ (>75% = ++++)
7. ++++ (>75% = ++++)

Please state Peptide exchange (MHC class I binding score, peptide exchange yield) for every substance in the list that follows.
1. 184 (KVLEPPLGAR; listed as Homo sapiens) [compound 184]
2. 203 (IVAFIPLSNK; listed as Homo sapiens) [compound 203]

// result
+++ (>50 = +++)
++++ (>75% = ++++)

Could you report Peptide exchange (MHC class I binding score, peptide exchange yield) for every entry in the following list?
1. 20 (LLPTVLIKK; listed as Homo sapiens) [compound 20]
2. 53 (KQALSLVRK; listed as Homo sapiens) [compound 53]
3. 213 (KLYPTHACR; listed as Homo sapiens) [compound 213]
4. 59 (KINQYIIKK; listed as Homo sapiens) [compound 59]

// result
1. +++ (>50 = +++)
2. +++ (>50 = +++)
3. ++++ (>75% = ++++)
4. +++ (>50 = +++)

// query Fill blank: measured Peptide exchange (MHC class I binding score, peptide exchange yield) of the substance 125 (VVYDTMIEKF; listed as Homo sapiens) [compound 125] is ____.
// result ++++ (>75% = ++++)
